Test: sensitizers of A549 cells to miR-34 induction, primary screen, imaging, A549 dox-inducible miR-34, nuclei and caspase counts (AID 1347080)
Settings: A549 miR-34 inducible, Hoechst nuclei count, 48 h; measured here: relative caspase fold change +Dox/-Dox
Lab note - cut at 2 for fold change: True if strictly below, False if not.

For orientation, consider the following solved cases.
compound	cat
C=C1CC[C@H](O)C/C1=C/C=C1\CCC[C@]2(C)C([C@H](C)/C=C/[C@H](C)C(C)C)CC[C@@H]12 (stereo not given in full)	False
C#C[C@]1(O)CCC2C3CCC4=CC(=O)CC[C@@H]4C3CC[C@@]21CC (stereo not given in full)	False
CC1=C(C(=O)O)N2C(=O)[C@@H](NC(=O)[C@H](N)C3=CCC=CC3)C2SC1 (stereo not given in full)	False
Cc1nc(N)cc(C[n+]2csc(CCO)c2C)n1	False
CC(=O)c1cc2ccccc2oc1=O	True

Query string: In the record for C#C[C@]1(O)CCC2C3CCC4=CC(=O)CC[C@@H]4C3CC[C@@]21C (stereo not given in full) , is fold change less than 2?
Result string: True

Query string: In the record for NCC[C@@H](O)C(=O)N[C@@H]1C[C@H](N)[C@@H](O[C@H]2O[C@H](CN)[C@@H](O)[C@H](O)[C@H]2O)[C@H](O)[C@H]1O[C@H]1O[C@H](CO)[C@@H](O)[C@H](N)C1O (stereo not given in full) , is fold change less than 2?
Result string: True

Query string: In the record for CC(C)(C)NCC(O)COc1cccc2c1CCCC2=O (stereo not given) , is fold change less than 2?
Result string: False

Query string: In the record for CC(=O)Oc1c(C)c(C)c2c(c1C)CCC(C)(CCCC(C)CCCC(C)CCCC(C)C)O2 (stereo not given) , is fold change less than 2?
Result string: True

Query string: In the record for C[C@]12CCC3c4ccc(O)cc4CCC3C1CC[C@@H]2O (stereo not given in full) , is fold change less than 2?
Result string: True

Query string: In the record for "Cc1cc(-c2ccc(N=Nc3ccc4c(S(=O)(=O)O)cc(S(=O)(=O)O)c(N)c4c3O)c(C)c2)ccc1N=Nc1ccc2c(S(=O)(=O)O)cc(S(=O)(=O)O)c(N)c2c1O" , is fold change less than 2?
Result string: True

Query string: In the record for "C[C@H](N[C@@H](CCc1ccccc1)C(=O)O)C(=O)N1Cc2ccccc2C[C@H]1C(=O)O" , is fold change less than 2?
Result string: True

Query string: In the record for C[C@]12C=CC(=O)C=C1CCC1C2[C@@H](O)C[C@@]2(C)C1CC[C@]2(O)C(=O)COC(=O)CCC(=O)O (stereo not given in full) , is fold change less than 2?
Result string: False

Query string: In the record for CCCCCCCCCCCCCCCC(=O)O[C@@H]1[C@@H](O)[C@@H](O)C([C@H](NC(=O)[C@@H]2C[C@@H](CCC)CN2C)[C@H](C)Cl)O[C@@H]1SC (stereo not given in full) , is fold change less than 2?
Result string: False

Query string: In the record for CC(=O)[C@@]12O[C@](C)(c3ccccc3)O[C@@H]1CC1C3CCC4=CC(=O)CC[C@]4(C)C3CC[C@@]12C (stereo not given in full) , is fold change less than 2?
Result string: True

###

Assay: growth inhibition of RCMB18 medulloblastoma cells, cell-based, cisplatin and BGB IC40 combos (AID 1671462);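 also: cells exposed to compound for four days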
Details: measured here: combination with cisplatin, at 0.5 µM, stronger effect = higher value
value.type: inhibition (%)
Give the quantity in %, number only.

Answered examples (5):
compound	value.type	unit.descriptor	result
NC(=O)c1ncn(C2OC(CO)C(O)C2O)n1 (configuration not stated)	inhibition	%	29.4
O=c1cc(-c2cccc3c2Sc2ccccc2S3)oc(N2CCOCC2)c1	inhibition	%	-2.95
Cc1c(-c2cnccn2)ssc1=S	inhibition	%	-54.1
O=c1ncccn1[C@@H]1O[C@H](CO)[C@@H](O)[C@H]1O	inhibition	%	-35.7
CO[C@H]1/C=C/O[C@@]2(C)Oc3c(C)c(O)c4c(O)c(c(C=NN5CCN(C)CC5)c(O)c4c3C2=O)NC(=O)/C(C)=C\C=C\[C@H](C)[C@H](O)[C@@H](C)[C@@H](O)[C@@H](C)[C@H](OC(C)=O)[C@@H]1C	inhibition	%	-16

Lab note: "O=C(Nc1ccccc1)c1ccccc1O" gave inhibition of 26.1

Lab note: "O=C(Nc1ccncc1)c1cc([N+](=O)[O-])ccc1Cl" gave inhibition of -52.5

###

Test: sensitizers of A549 cells to miR-34 induction, primary screen, imaging, A549 dox-inducible miR-34, nuclei and caspase counts (AID 1347080)
Settings: A549 miR-34 inducible, Hoechst nuclei count, 48 h; measured here: total cells with miR-34 induction; stronger effect = lower value
value.type: cell count
Please reply with the value in numeric form only.

Answered examples (4):
molecule	result
CC1(C)O[C@@H]2CC3C4CCC5=CC(=O)C=C[C@]5(C)C4[C@@H](O)C[C@]3(C)[C@]2(C(=O)CO)O1 (stereo partly drawn)	5940
O=C(O)c1cc(O)c2c(c1)[C@@H]([C@H]1c3cc(C(=O)O)cc(O)c3C(=O)c3c(O[C@H]4O[C@H](CO)[C@@H](O)[C@H](O)[C@H]4O)cccc31)c1cccc(O[C@H]3O[C@H](CO)[C@@H](O)[C@H](O)[C@H]3O)c1C2=O	10200
O=C(O)C1=CC(=C(c2ccc(O)c(C(=O)O)c2)c2ccc(O)c(C(=O)O)c2)C=CC1=O	8760
Cc1ccc(S(=O)(=O)NCl)cc1	8910

Lab note: C[C@]12CCC3c4ccc(O)cc4CCC3C1CC[C@@H]2O (stereo partly drawn) gave cell count of 11000

Lab note: CC(=O)OCC(=O)[C@@]1(O)CCC2C3CCC4=CC(=O)C=C[C@]4(C)[C@@]3(Cl)[C@@H](Cl)C[C@@]21C (stereo partly drawn) gave cell count of 6210

Lab note: "CC(C)Nc1ncccn1" gave cell count of 8370

Lab note: Cc1onc(-c2ccccc2)c1C(=O)NC1C(=O)N2[C@@H]1SC(C)(C)[C@@H]2C(=O)O (stereo partly drawn) gave cell count of 11300

###

Assay: HepG2 cytotoxicity, primary screen, cytotoxicity control for P. falciparum antimalarial project, cell-based, ATP luminescence (AID 2303);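 also: 0% = DMSO wells and 100% = digitonin-killed cells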
Conditions: HepG2 viability, 24-48 h, at 10 µM
The source made the active and inactive calls.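 The calls were made as follows: active = inhibition above 50%; inactive = the rest.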
Would you mind answering with one of these outcomes? active, inactive

                                   molecule       cat
0  CCn1c(-c2nonc2N)nc2c(-c3cc4ccccc4s3)ncc(C(=O)N3CCC(N)C3)c21 (centres undefined)    active
1  CC1=C(C(=O)Nc2cc3cn[nH]c3cc2F)C(c2ccc(Cl)c(NS(C)(=O)=O)c2)CC(=O)N1 (centres undefined)  inactive
2  CN1CCN(c2ccc(Nc3nccc(-c4c(-c5cccc(NC(=O)c6c(F)cccc6F)c5)nn5ccccc45)n3)cc2)CC1    active
3  COc1cc(C(=O)NC2CC(C)(C)N(C)C(C)(C)C2)ccc1-c1nc2cc(Cl)c(Cl)cc2[nH]1    active
4  Nc1cc2c(C3CCN(CC4CCN(C(=O)/C=C/c5ccc(Cl)c(Cl)c5)CC4)CC3)c[nH]c2cn1  inactive

Query string: // return assay outcome for "Oc1ccc(-c2ccccc2)cc1CNC1CCCCC1"
Result string: inactive

Query string: // return assay outcome for CCCC(C)Nc1nc(C)cc(N[C@@H](Cc2ccccc2)C(=O)Nc2ccccc2)n1 (some centres undefined)
Result string: active

Query string: // return assay outcome for "Cc1cccc2[nH]c(-c3ccc(-c4ccc(NC(=O)CN5CCN(C)CC5)cc4)s3)nc12"
Result string: active

Query string: // return assay outcome for "CN1CCC(N2CCN(Cc3ccc(-c4cccc(-c5nc6ccc(F)cc6[nH]5)c4)cc3)CC2)CC1"
Result string: active

###

Entries and their measured luciferase signal follow.
Target: Mitogen-activated protein kinase 7 (Homo sapiens)
Assay: ERK5 transactivation activators in reporter cells, primary screen, cell-based, HTS (AID 1508626);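 also: luciferase driven by Gal4-ERK5 fusion binding five Gal4 sites before minimal TATA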
Details: HeLa Gal4-ERK5 transactivation, 18 h, at 5 µM, stronger effect = higher value
Active and inactive are the calls of the source.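 The calls were made as follows: active = luciferase signal above three times the same-plate solvent-only control wells; inactive = the rest.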

Answered examples (5):
                                   compound             result
0  CCCCCCCCCCCCCCCC(=O)OCC(O)CO (stereo unspecified)   72 AU (inactive)
1  CC(C)c1ccc2c(c1)CCC1C(C)(C(N)=O)CCCC21C (stereo unspecified)   64 AU (inactive)
2  COc1ccc(-c2oc3cc(OC)c(OC)c(OC)c3c(=O)c2OC)cc1OC   32 AU (inactive)
3  CC(=O)N1CCN(c2ccc(OC[C@H]3CO[C@](Cn4ccnc4)(c4ccc(Cl)cc4Cl)O3)cc2)CC1   40 AU (inactive)
4  NC(Cc1ccc(F)cc1)C(=O)O (stereo unspecified)  100 AU (inactive)

Here is another compound to look at.
Lab note: CCC1(C)OC(=O)N(C)C1=O (stereo unspecified) gave luciferase signal of 16 AU (inactive)
